Catalogue of binders with associated MFI pH 6.0
subject.of.test: T1, human CD3 on CD3+ Jurkat cells (human, UniProt P07766 23-207)
T1 construct: whole, on cells; Native CD3 complex on cells; the other CD3 chains are not specified for this assay; also called Human CD3+ Jurkat
assay.comment: flow cytometry, 100 nM IgG on CD3+ Jurkat cells, pH 6.0
Reply with just the number (in MFI).

>>> observed_measurement("SAD10320_P04_E10 (ADI-48657) (antibody, V domains shown, IgG; also called Ab106) VH: QVQLVQSGAEVKKPGASVKVSCKASGFNIKDYYMHWVRQAPGQRPEWMGWIDLENANTIYDAKFQGRVTITRDTSASTAYMELSSLRSEDTAVYYCARDAYGHDFYDVWGQGTLVTVSS VL: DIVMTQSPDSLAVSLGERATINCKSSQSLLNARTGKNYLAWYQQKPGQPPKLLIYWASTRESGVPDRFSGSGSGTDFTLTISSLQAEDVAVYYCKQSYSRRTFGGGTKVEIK")
786

Now look at this one.
input: Given the binder SAD10319_P03_E07 (ADI-48635) (antibody, V domains shown, IgG; also called Ab17) VH: QVQLVQSGAEVKKPGASVKVSCKASGYTFESYDMHWVRQAPGQRLEWMGWIDAGTGATTYSQKFQGRVTITRDTSASTAYMELSSLRSEDTAVYYCARDAYHHYFYDVWGQGTLVTVSS VL: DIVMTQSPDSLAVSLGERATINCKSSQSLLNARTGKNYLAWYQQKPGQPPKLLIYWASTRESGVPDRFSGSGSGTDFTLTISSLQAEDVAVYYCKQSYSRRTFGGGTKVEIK , what is its reported MFI pH 6.0?
output: 623

Source listed as patent US20220380463A1.
